All figures here come from ChEMBL document CHEMBL1134540.

PROTOCOL_NOTES: Partition coefficient (logD7.4)
DETAILS: octanol/water, pH 7.4
Consider the reported logD of an entry and match it to a band in class 0 (below 0.6), class 1 (0.6 to below 2), class 2 (2 or more)

Lab note: which band did NS(=O)(=O)c1cc(C2(O)NC(=O)c3ccccc32)ccc1Cl (stereo unspecified) [CHLORTHALIDONE] land in? class 1

Follow-up item: Oc1ncnc2[nH]ncc12 [ALLOPURINOL] class 0

Follow-up item: c1ccc(-c2ccc(C(c3ccccc3)n3ccnc3)cc2)cc1 (stereo unspecified) [BIFONAZOLE] class 2

Follow-up item: CNC(=C[N+](=O)[O-])NCCSCc1ccc(CN(C)C)o1 [RANITIDINE] class 0

Follow-up item: COc1ccc2[nH]c([S+]([O-])Cc3ncc(C)c(OC)c3C)nc2c1 (stereo unspecified) [OMEPRAZOLE] class 2

Follow-up item: CSc1ccc2c(c1)N(CCC1CCCCN1C)c1ccccc1S2 (stereo unspecified) [THIORIDAZINE] class 2

Follow-up item: `Oc1cc(Cl)cc(Cl)c1` class 2

Follow-up item: CC/C(=C(/CC)c1ccc(O)cc1)c1ccc(O)cc1 [DIETHYLSTILBESTROL] class 2

Follow-up item: `CNS(=O)(=O)Cc1ccc2[nH]cc(CCN(C)C)c2c1` class 0

Follow-up item: Clc1cccc(Cl)c1N=C1NCCN1 [CLONIDINE] class 1

Follow-up item: O=C1CN=C(c2ccccn2)c2cc(Br)ccc2N1 [BROMAZEPAM] class 1

Follow-up item: CC(=O)CCCCn1c(=O)c2c(ncn2C)n(C)c1=O [PENTOXIFYLLINE] class 0

Follow-up item: CCOC(=O)C1=C(COCCN)NC(C)=C(C(=O)OC)C1c1ccccc1Cl (stereo unspecified) [AMLODIPINE] class 1

Follow-up item: C[C@]12CC[C@H]3[C@@H](CCC4=CC(=O)CC[C@@]43C)[C@@H]1CC[C@@H]2O [TESTOSTERONE] class 2

Follow-up item: C=CCc1ccccc1OCC(O)CNC(C)C (stereo unspecified) [ALPRENOLOL] class 1

Follow-up item: CS(=O)(=O)c1ccc([C@@H](O)[C@@H](CO)NC(=O)C(Cl)Cl)cc1 [THIAMPHENICOL] class 0
